Run description: Plasma pharmacokinetics after single oral doses in the PET studies
Type: in vivo, human
Assay conditions: human, plasma, po, 20 mg, AZD7325 single oral dose 20 mg; individual subjects
Description: Venous blood samples for determination of drug plasma concentrations were collected at approximately 15 min before [^11C]flumazenil injection and at 15 and 30 min and 3, 4, 6, 8, 10, 12, 16, 24, 36, and 48 h after drug administration, including three samples during PET measurement, at 1, 1.30, and 2 h after drug administration. […]

Molecule	Tmax, h
CCCNC(=O)c1nnc2c(-c3c(F)cccc3OC)cccc2c1N [AZD7325]	3

====

Test target: Melatonin MT1 (Homo sapiens)
Sequence (P48039 whole entry): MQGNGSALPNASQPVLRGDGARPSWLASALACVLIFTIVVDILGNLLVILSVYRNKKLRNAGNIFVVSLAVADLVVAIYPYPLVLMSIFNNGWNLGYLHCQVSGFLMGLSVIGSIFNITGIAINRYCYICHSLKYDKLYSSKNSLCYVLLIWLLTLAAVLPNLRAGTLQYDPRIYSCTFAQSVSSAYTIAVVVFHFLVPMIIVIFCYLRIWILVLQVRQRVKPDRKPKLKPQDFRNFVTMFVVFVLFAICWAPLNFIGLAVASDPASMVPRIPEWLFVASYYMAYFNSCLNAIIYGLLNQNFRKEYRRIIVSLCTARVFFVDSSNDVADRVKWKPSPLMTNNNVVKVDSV
pIC50: −log10 of the molar value.

Structure smiles	pIC50
CCCNC(=O)c1nnc2c(-c3cc(OC)ccc3OC)cccc2c1N	6.94
